Listed here are variants together with their documented enrichment.
B1: NF2 (merlin) isoform 7, human, full length (507 aa, lacks exons 2-3 = isoform-1 residues 39-121; exon-16 C-terminus), P35240-4 (parent)
chain: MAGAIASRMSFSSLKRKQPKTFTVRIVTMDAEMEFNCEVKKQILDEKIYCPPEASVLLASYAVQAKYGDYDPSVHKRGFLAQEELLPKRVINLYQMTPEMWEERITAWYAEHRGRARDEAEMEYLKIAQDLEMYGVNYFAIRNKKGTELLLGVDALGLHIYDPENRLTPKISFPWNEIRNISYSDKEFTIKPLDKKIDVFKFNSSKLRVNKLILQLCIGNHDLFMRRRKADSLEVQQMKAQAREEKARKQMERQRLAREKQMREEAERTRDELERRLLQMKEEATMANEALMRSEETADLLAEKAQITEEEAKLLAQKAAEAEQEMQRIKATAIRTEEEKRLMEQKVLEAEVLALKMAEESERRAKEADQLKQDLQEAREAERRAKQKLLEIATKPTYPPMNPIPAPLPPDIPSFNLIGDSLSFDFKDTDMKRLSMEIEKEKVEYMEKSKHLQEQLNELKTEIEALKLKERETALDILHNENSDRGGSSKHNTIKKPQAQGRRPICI

Variants of: B1
test: reverse yeast two-hybrid deep mutational scan (rY2H-seq): NF2 isoform 7 mutant library as bait mated with wild-type prey strains; selection on medium lacking adenine for non-interacting pairs; NextSeq paired-end sequencing; enrichment vs …
study.conditions: with EMILIN1 (elastin microfibril interfacer 1), Q9Y6C2; yeast diploids after mating (RBait_S3 x RPrey_S3), 30 °C, selection for reporter genes on NB agar; human ABL2 co-expressed as the kinase-dead K35M mutant …; HIGHER = WEAKER BINDING (the opposite of display enrichments): higher = stronger loss of interaction: reverse Y2H selects yeast in which bait and prey do NOT interact (growth without adenine), so a …; hits-only table; scale: rY2H score; numbering: uniprot, sequence starts at 1
Give a plain numeric answer without units written out.

Look over these answered cases.
L315E    3.8
R263L    3.17
F415K    2.05
D162K    1.74
T28L    5.37

Qu. Would you kindly share the measured enrichment for `E367L` ?
Ans. 6.79

Qu. Quick one: enrichment for `N457L` ?
Ans. 3.83

Qu. Which value of enrichment has been reported for `Q373E` in the records?
Ans. 3.3

Qu. enrichment lookup needed for `L156P` , thanks.
Ans. 2.26

// provenance: paper PMC10244618
